experiment: Quantitative High-Throughput drug screen in 47 multiple myeloma cell lines against the NCATS MIPE library collection: NCIH929_DSMZ cell viability assay (AID 1918978); settings: NCI-H929 myeloma viability, CellTiter-Glo ATP, 48 h; series mostly up to 45.8 µM; also: nearly all actives have a fitted effect of over 35% in size
Results filed as inconclusive are left out. Active and inactive are the calls of the source. Calls follow the shape of the dose curve; as a rule, active = well fitted cell-killing curve with a large enough effect; inconclusive = small, poorly fitted or top-dose-only effect; inactive = no such curve, though single readings can be large or run the other way.
Select the correct class. Options are t for active, f for inactive and nothing else.

Record request — test call for `Cc1[nH]c(C=C2C(=O)Nc3ccc(S(=O)(=O)N(C)c4cccc(Cl)c4)cc32)c(C)c1C(=O)N1CCN(C)CC1`
t

What call does the record list for `CCN1CCC(n2cc(CNc3cc(Cl)c4ncc(C#N)c(Nc5ccc(F)c(Cl)c5)c4c3)nn2)CC1` ?
t

Query: recorded result category for `CC(C)[C@H](O)C(=O)N[C@@H](C)C(=O)N[C@@H]1C(=O)N(C)CCc2ccccc21` in this test
t

Status in this test for CN1C(=O)C(Cc2c[nH]c3ccccc23)NC1=S (stereo not given) ?
f

Recorded test call requested for `CC=C(C(=CC)c1ccc(O)cc1)c1ccc(O)cc1`
f

FYI, the data here is from PubChem BioAssay (NCATS).
